Data credit: ChEMBL document CHEMBL1201862

# system: Microphthalmia-associated transcription factor (Homo sapiens, UniProt O75030)
# Sequence (O75030 whole entry): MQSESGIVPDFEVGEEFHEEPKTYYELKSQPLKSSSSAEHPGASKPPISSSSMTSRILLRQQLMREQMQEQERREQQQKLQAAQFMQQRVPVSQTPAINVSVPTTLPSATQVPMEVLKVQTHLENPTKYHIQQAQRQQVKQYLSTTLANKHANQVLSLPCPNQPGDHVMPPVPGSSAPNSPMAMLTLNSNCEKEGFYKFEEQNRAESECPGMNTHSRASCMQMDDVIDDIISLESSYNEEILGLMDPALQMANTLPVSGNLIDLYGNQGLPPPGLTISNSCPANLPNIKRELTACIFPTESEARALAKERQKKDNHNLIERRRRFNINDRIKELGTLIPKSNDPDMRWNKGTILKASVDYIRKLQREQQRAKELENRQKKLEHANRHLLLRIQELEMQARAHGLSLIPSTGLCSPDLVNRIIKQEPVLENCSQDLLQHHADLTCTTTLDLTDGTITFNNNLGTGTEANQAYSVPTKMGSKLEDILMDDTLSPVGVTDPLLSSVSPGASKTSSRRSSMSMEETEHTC
# assay_protocol: TRPM1 promoter luciferase signal decrease, dose response, MITF inhibitor project, cell-based, SK-MEL-5, cherry-picked, set 3 (AID 493073);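 also: SK-MEL-5 melanoma cells with luciferase driven by the MITF target TRPM1 promoter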
# Type: functional
Active and inactive are the calls of the source.
assay_metric: AC50

                                   compound        test_value
0  COc1ccc(/C=C2\SC(=S)N(CCCC(=O)NNC(=O)c3ccccc3O)C2=O)cc1  1.38 µM (active)
1  Cc1ccccc1NC(=O)Cc1nc(COC(=O)c2ccc(S(C)(=O)=O)c([N+](=O)[O-])c2)cs1  12.8 µM (active)
2  O=C(COC(=O)c1cccnc1O)Nc1ccc(N2CCCCC2)cc1  1.03 µM (active)
3  CC(C)c1ccc(/C=C2\SC(=S)N(CCC(=O)N3CCCCC3CCO)C2=O)cc1 (stereo not drawn)  7.43 µM (active)
4  NC(=O)c1cc([N+](=O)[O-])ccc1NCc1ccc(N)cc1  1.41 µM (active)
5  CCN1CCN(c2ccc(S(=O)(=O)N3CCCCC3)cc2NC(=O)/C=C/c2ccc([N+](=O)[O-])cc2)CC1  7.51 µM (active)
6  CN(C)c1nc(C=C(C#N)C#N)c(Cl)n1-c1ccc(F)cc1  3.92 µM (active)
7     CCCCn1c(=N)n(CCOc2ccc(C)cc2)c2ccccc21  11.3 µM (active)

====

# system: Protein RecA (Mycobacterium tuberculosis, UniProt P9WHJ3)
# assay_protocol: Fluorescence Cell-Free Homogeneous Dose Retest to Identify Inhibitors of RecA-Intein Splicing Activity. [Related pubchem assays (depositor defined):AID2097, AID2223, AID489010, AID492950]
# Assay type: functional
Calls of active or inactive are those of the source.
// reported EC50 per item
assay_metric: EC50

                                   compound               test_value
0  CCOC(=O)CS(=O)(=O)c1nc(-c2ccccc2)cc(C(F)(F)F)n1         4.15 µM (active)
1  Cn1c(SCC(=O)NCC2CCCO2)ncc(C(=O)Nc2ccc(F)cc2)c1=O (stereo not given)        0.315 µM (active)
2         O=C(Nc1nc(C(F)(F)F)n[nH]1)c1cccs1         9.84 µM (active)
3  CCc1ccc(S(=O)(=O)/N=C2\C=C(NS(=O)(=O)c3ccccc3)C(=O)c3ccccc32)cc1         3.08 µM (active)
4      O=C(Nc1cccc(OC(=O)c2ccco2)c1)c1ccco1         10.1 µM (active)
5  Cc1cccc(CS(=O)(=O)c2ncc(Cl)c(C(=O)Nc3c(C)cccc3C)n2)c1         4.66 µM (active)
6  CC(NC(=O)COC(=O)c1cc(NS(=O)(=O)c2ccc(Cl)c([N+](=O)[O-])c2)ccc1O)C1CC2CCC1C2 (stereo not given)          3.7 µM (active)
7    CC(=O)c1c(Cl)nc2cccc3c2c1-c1ccccc1C3=O  0.297 µM (inconclusive)
8               O=c1oc(-c2ccccc2)cc(Cl)c1Cl         4.74 µM (active)
9    O=S(=O)(Nc1c(O)ccc2ccccc12)c1ccc(F)cc1         1.16 µM (active)

====

# Test system: INS1
# assay_protocol: beta cell apoptosis inhibitors, cytokine rescue, dose response, luminescence, retest (AID 449756);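 also: cell death triggered by IL-1 beta plus TNF-alpha plus IFN-gamma mixture; protective hits raise ATP signal compared with cytokine alone wells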
# Format: functional, cell-based
# condition_label: Rattus norvegicus
Calls of active or inactive are those of the source.
// reported AC50 per item
assay_metric: AC50

                                 mol_smiles        test_value
0  CCc1ccc(CN(C)C(=O)c2cc(COc3cccc4cnccc34)on2)cc1  3270 nM (active)
1  Cc1cc(C)n(-c2nc(NCCO)c3c4c(sc3n2)CCCC4)n1  5300 nM (active)
2  Cc1ccc(/N=C/c2c(C)[nH]n(-c3nc4ccccc4[nH]3)c2=O)cc1  1420 nM (active)
3  O=C(N/N=C/c1cc(Br)ccc1O)C(=O)Nc1ccccc1OC(F)(F)C(F)F  2170 nM (active)

====

# system: DNA dC->dU-editing enzyme APOBEC-3G (Homo sapiens)
# Sequence (Q9HC16 whole entry): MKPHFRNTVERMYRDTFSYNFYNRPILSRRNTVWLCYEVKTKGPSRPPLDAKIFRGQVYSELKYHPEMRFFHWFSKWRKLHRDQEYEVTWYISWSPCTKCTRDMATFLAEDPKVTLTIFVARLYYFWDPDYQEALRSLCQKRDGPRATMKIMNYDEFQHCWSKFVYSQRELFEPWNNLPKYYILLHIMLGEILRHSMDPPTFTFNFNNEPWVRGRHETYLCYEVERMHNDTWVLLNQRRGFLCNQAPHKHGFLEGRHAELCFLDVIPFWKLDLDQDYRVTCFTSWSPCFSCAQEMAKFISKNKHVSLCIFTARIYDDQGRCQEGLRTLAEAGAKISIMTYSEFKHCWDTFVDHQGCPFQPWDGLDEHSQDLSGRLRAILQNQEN
# assay_protocol: Dose Response confirmation of small molecule APOBEC3G DNA Deaminase Inhibitors via a fluorescence-based single-stranded DNA deaminase assay. [Related pubchem assays (depositor defined):AID493012, AID493028]
# Assay type: functional
Active and inactive are the calls of the source.
assay_metric: IC50

>>> df
                                mol_smiles        test_value
0     Cc1cc(-c2nnc(S)n2-c2ccc(C)c(C)c2)no1  8.07 µM (active)
1             CC(C)Cn1c(S)nnc1-c1ccc(F)cc1  9.54 µM (active)
2        CCCn1c(=O)c2ccccc2n2c(=S)[nH]nc12  2.87 µM (active)
3         COc1ccc(NC(=S)c2ccc3ccccc3n2)cc1  66.5 µM (active)
4              Cc1[nH]c(=S)c(C#N)c2c1CCCC2  5.25 µM (active)
5  CC(=C/c1ccccc1)/C=N/n1c(S)nnc1-c1ccncc1  2.33 µM (active)
6           C=CCn1c(=O)c2ccccc2n2c(S)nnc12  2.61 µM (active)

====

As a worked illustration, we turn to AC50 data collected for Cytochrome P450 2C9 (Homo sapiens, UniProt P11712).

compound	AC50
CCCCC(=O)Nc1sc2c(c1C(=O)OCC)CCC(C=O)=C2Cl	7.94 µM (inconclusive)
C=CCN(CC=C)C(=O)C(=O)c1cc(C)n(-c2ccc([N+](=O)[O-])cc2)c1C	15.8 µM (inconclusive)
O=c1c(-c2nnc(SCc3ccc(Cl)c(Cl)c3)o2)cccn1Cc1ccccc1	15.8 µM (inconclusive)
Cc1nn(C)c(C)c1CNC(=O)c1cnn2c1NC(c1ccccc1)CC2C(F)(F)F (stereo unspecified)	15.8 µM (inconclusive)
C/C(=N\NC(N)=O)c1ccc(Cl)cc1	2 µM (inconclusive)
O=[N+]([O-])c1ccc2nc(-c3ccc(Cl)cc3)n(OCc3ccccc3)c2c1	22.4 µM (inconclusive)
O=C(CSc1nnc2c(n1)[nH]c1ccc(F)cc12)OCc1ccccc1	0.0708 µM (inconclusive)
Cc1nn(C)c(Cl)c1S(=O)(=O)N[C@@H](c1ccccc1)[C@]1(C)C[C@H]1[C@@H](C)C(=O)Nc1ccc2ccccc2c1	6.31 µM (inconclusive)
O=C(c1cc(C(F)(F)F)cc(C(F)(F)F)c1)N1CCC2(CCCN(Cc3ccncc3)C2)CC1	7.94 µM (inconclusive)
O=C(OCc1nc2ccccc2[nH]1)C12CC3CC(CC(C3)C1)C2	14.1 µM (inconclusive)
CC(C)[C@@H]1NC(=O)[C@H](CCCCN)NC(=O)[C@H](Cc2c[nH]c3ccccc23)NC(=O)[C@H](Cc2ccc(O)cc2)NC(=O)[C@H](C)N(C)C(=O)[C@H](Cc2ccccc2)NC1=O	25.1 µM (inconclusive)
CN1C(=O)NC(c2ccc(O)cc2)C(C(=O)c2cccs2)C1(O)C(F)(F)F (stereo unspecified)	39.8 µM (inconclusive)
O=C(CCN1CCN(CC(=O)Nc2ccccc2Cl)CC1)Nc1ccccc1F	10 µM (inconclusive)
COC(=O)C1=C(NC(=O)c2cccs2)CCS1	39.8 µM (inconclusive)
N#Cc1cccc(-c2nc(NCc3cccnc3)c3ccccc3n2)c1	1.58 µM (inconclusive)
O=C(Nc1cccc(OC(=O)c2ccco2)c1)c1ccco1	25.1 µM (inconclusive)

====

# system: Luciferin 4-monooxygenase (Photinus pyralis, UniProt P08659)
# Sequence (P08659 whole entry): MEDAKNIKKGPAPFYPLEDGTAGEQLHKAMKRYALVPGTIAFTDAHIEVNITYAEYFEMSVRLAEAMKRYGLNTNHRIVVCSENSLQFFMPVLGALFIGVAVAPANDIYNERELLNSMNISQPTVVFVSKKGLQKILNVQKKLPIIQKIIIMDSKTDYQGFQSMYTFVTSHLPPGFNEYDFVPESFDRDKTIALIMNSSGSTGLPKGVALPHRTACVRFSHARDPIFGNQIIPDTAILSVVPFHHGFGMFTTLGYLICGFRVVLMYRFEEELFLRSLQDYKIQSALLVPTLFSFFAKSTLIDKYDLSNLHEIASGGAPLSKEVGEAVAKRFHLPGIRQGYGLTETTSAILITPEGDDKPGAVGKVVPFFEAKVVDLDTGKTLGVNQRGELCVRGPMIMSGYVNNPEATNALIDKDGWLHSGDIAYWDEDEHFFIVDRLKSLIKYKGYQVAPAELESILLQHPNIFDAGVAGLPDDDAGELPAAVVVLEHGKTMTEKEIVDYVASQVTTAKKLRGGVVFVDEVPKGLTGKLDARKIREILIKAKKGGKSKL
# assay_protocol: firefly luciferase enzyme inhibitors, dose response, biochemical, luminescence (AID 1891)
Active and inactive are the calls of the source.
assay_metric: EC50

In [3]: df
Out[3]:
                                   molecule             test_value
0               O=C(Nc1ccc(F)cc1)Nc1ccccc1F       6.85 µM (active)
1  COc1ccccc1NC(=O)c1cc([N+](=O)[O-])ccc1N1CCOCC1  > 112 µM (not active)
2  COc1ccc(/C=N/NC(=O)c2ccncc2)cc1CN1CCN(c2ccc(F)cc2)CC1  > 112 µM (not active)
3  Cn1c(=O)n(C)c2cc(S(=O)(=O)NCc3ccccc3)ccc21  > 112 µM (not active)
4  CC(=O)c1c(C)[nH]c(C(=O)CSc2nnc(-c3ccc(Cl)cc3)n2CC2CCCO2)c1C (stereo not given)  > 112 µM (not active)
5  COc1ccc(C(=O)Nc2ccccc2C(=O)N/N=C/c2ccco2)cc1      0.329 µM (active)
6  COC(=O)C1=C(C)N=C2SC(C#N)=C(N)N2C1c1cccc(OC)c1 (stereo not given)  > 112 µM (not active)
7  CCOC(=O)c1sc(NN=C2C(=O)CC(C)(C)CC2=O)c(C(=O)OCC)c1C  > 112 µM (not active)
8  COc1ccc(C(=O)Nc2ccccc2C(=O)N/N=C/c2ccccc2OC)cc1      0.286 µM (active)
9  Cn1cc(S(=O)(=O)N2CCCC2)cc1C(=O)N1CCN(c2cccc(Cl)c2)CC1  > 112 µM (not active)
